These data points were gathered from ChEMBL document CHEMBL5120841.

# System: Staphylococcus epidermidis
# measurement_description: Antibacterial activity against methicillin-resistant Staphylococcus epidermidis ATCC 51625 assessed as bacterial growth inhibition incubated for 18 to 24 hrs by microtiter dilution method
# Format: functional
# measurement_context: time 18-24 hrs
measurement_name: MIC (µg/mL)
One number for each entry, in µg/mL.

Sample records with MIC:
| molecule | measurement_name | numeric_value |
| --- | --- | --- |
| C=C[C@]1(C)C[C@@H](OC(=O)CSC2=NC(C)=C(C(C)=O)C(C)N2)[C@]2(C)[C@H](C)CC[C@]3(CCC(=O)[C@H]32)[C@@H](C)[C@@H]1O (stereo partly drawn) | MIC | 0.25 |
| C=C[C@]1(C)C[C@@H](OC(=O)CSc2nc(C)c(C(C)=O)c(C)n2)[C@]2(C)[C@H](C)CC[C@]3(CCC(=O)[C@H]32)[C@@H](C)[C@@H]1O | MIC | 0.0313 |

Could you tell me which MIC is on file for C=C[C@]1(C)C[C@@H](OC(=O)CSC2=NC(C)=C(C(=O)OCC)C(C)N2)[C@]2(C)[C@H](C)CC[C@]3(CCC(=O)[C@H]32)[C@@H](C)[C@@H]1O (stereo partly drawn) ? 0.0625

====

Provide the recorded MIC for the entries that follow.
# System: Staphylococcus epidermidis
# measurement_description: Antibacterial activity against methicillin-resistant Staphylococcus epidermidis ATCC 51625 assessed as bacterial growth inhibition incubated for 18 to 24 hrs by microtiter dilution method
# Type: functional
# measurement_context: time 18-24 hrs
Numbers only, in µg/mL.

# count of solved cases: 3
| compound | MIC (µg/mL) |
| --- | --- |
| C=CCOC(=O)C1=C(C)N=C(SCC(=O)O[C@@H]2C[C@@](C)(C=C)[C@@H](O)[C@H](C)[C@]34CCC(=O)[C@H]3[C@@]2(C)[C@H](C)CC4)NC1C (some centres undefined) | 0.5 |
| C=C[C@]1(C)C[C@@H](OC(=O)CSCCN(CC)CC)[C@]2(C)[C@H](C)CC[C@]3(CCC(=O)[C@H]32)[C@@H](C)[C@@H]1O.O=C(O)/C=C/C(=O)O [TIAMULIN FUMARATE] | 0.5 |
| C=C[C@]1(C)C[C@@H](OC(=O)CSc2nc(C)c(C(=O)OC)c(C(CC)CC)n2)[C@]2(C)[C@H](C)CC[C@]3(CCC(=O)[C@H]32)[C@@H](C)[C@@H]1O | 0.5 |

MIC for C=C[C@]1(C)C[C@@H](OC(=O)CSC2=NC(CCC)=C(C(=O)OC)C(C)N2)[C@]2(C)[C@H](C)CC[C@]3(CCC(=O)[C@H]32)[C@@H](C)[C@@H]1O (some centres undefined) ? 4

====

# Tested on: Staphylococcus epidermidis
# measurement_description: Antibacterial activity against methicillin-resistant Staphylococcus epidermidis ATCC 51625 assessed as bacterial growth inhibition incubated for 18 to 24 hrs by microtiter dilution method
# Type: functional
# measurement_context: time 18-24 hrs
measurement_name: MIC (µg/mL)
One number for each entry, in µg/mL.

| molecule | unit_of_measure | MIC |
| --- | --- | --- |
| C=C[C@]1(C)C[C@@H](OC(=O)CSc2nc(C)c(C(=O)OC)c(CCC)n2)[C@]2(C)[C@H](C)CC[C@]3(CCC(=O)[C@H]32)[C@@H](C)[C@@H]1O | µg/mL | 0.0625 |

Dear colleague, could you please provide MIC for the molecules listed below?
1. C=C[C@]1(C)C[C@@H](OC(=O)CSc2nc(C)c(C(=O)OC)c(CC(C)C)n2)[C@]2(C)[C@H](C)CC[C@]3(CCC(=O)[C@H]32)[C@@H](C)[C@@H]1O
2. C=C[C@]1(C)C[C@@H](OC(=O)CSC2=NC(C)=C(C(=O)OCCC)C(C)N2)[C@]2(C)[C@H](C)CC[C@]3(CCC(=O)[C@H]32)[C@@H](C)[C@@H]1O (stereo partly specified)
3. C=C[C@]1(C)C[C@@H](OC(=O)CSc2nc(C)c(C(=O)OC)c(CC)n2)[C@]2(C)[C@H](C)CC[C@]3(CCC(=O)[C@H]32)[C@@H](C)[C@@H]1O
4. C=C[C@]1(C)C[C@@H](OC(=O)CSc2nc(C)c(C(=O)OC)c(CCCC)n2)[C@]2(C)[C@H](C)CC[C@]3(CCC(=O)[C@H]32)[C@@H](C)[C@@H]1O

0.5
0.5
0.0625
0.5

====

# Tested on: Staphylococcus epidermidis
# measurement_description: Antibacterial activity against methicillin-resistant Staphylococcus epidermidis ATCC 51625 assessed as bacterial growth inhibition incubated for 18 to 24 hrs by microtiter dilution method
# Format: functional
# measurement_context: time 18-24 hrs
What MIC was measured for each of the following?
Don't forget the unit after the value.

See these solved cases before continuing.
| molecule | target_or_test_system | MIC |
| --- | --- | --- |
| C=C[C@]1(C)C[C@@H](OC(=O)CSC2=NC(C(CC)CC)=C(C(=O)OC)C(C)N2)[C@]2(C)[C@H](C)CC[C@]3(CCC(=O)[C@H]32)[C@@H](C)[C@@H]1O (stereo partly specified) | Staphylococcus epidermidis | 0.25 µg/mL |
| C=C[C@]1(C)C[C@@H](OC(=O)CSC2=NC(CC)=C(C(=O)OC)C(C)N2)[C@]2(C)[C@H](C)CC[C@]3(CCC(=O)[C@H]32)[C@@H](C)[C@@H]1O (stereo partly specified) | Staphylococcus epidermidis | 0.125 µg/mL |
| C=C[C@]1(C)C[C@@H](OC(=O)CSc2nc(C)c(C(=O)OC(C)CC)c(C)n2)[C@]2(C)[C@H](C)CC[C@]3(CCC(=O)[C@H]32)[C@@H](C)[C@@H]1O (stereo partly specified) | Staphylococcus epidermidis | 0.5 µg/mL |
| C=C[C@]1(C)C[C@@H](OC(=O)CSC2=NC(C)=C(C(=O)OC)C(C)N2)[C@]2(C)[C@H](C)CC[C@]3(CCC(=O)[C@H]32)[C@@H](C)[C@@H]1O (stereo partly specified) | Staphylococcus epidermidis | 0.125 µg/mL |
| C=C[C@]1(C)C[C@@H](OC(=O)CSC2=NC(CC(C)C)=C(C(=O)OC)C(C)N2)[C@]2(C)[C@H](C)CC[C@]3(CCC(=O)[C@H]32)[C@@H](C)[C@@H]1O (stereo partly specified) | Staphylococcus epidermidis | 0.5 µg/mL |
| C=C[C@]1(C)C[C@@H](OC(=O)CSC2=NC(CCCC)=C(C(=O)OC)C(C)N2)[C@]2(C)[C@H](C)CC[C@]3(CCC(=O)[C@H]32)[C@@H](C)[C@@H]1O (stereo partly specified) | Staphylococcus epidermidis | 1 µg/mL |
| C=CCOC(=O)c1c(C)nc(SCC(=O)O[C@@H]2C[C@@](C)(C=C)[C@@H](O)[C@H](C)[C@]34CCC(=O)[C@H]3[C@@]2(C)[C@H](C)CC4)nc1C | Staphylococcus epidermidis | 0.25 µg/mL |
| C=C[C@]1(C)C[C@@H](OC(=O)CSc2nc(C)c(C(=O)OCCC)c(C)n2)[C@]2(C)[C@H](C)CC[C@]3(CCC(=O)[C@H]32)[C@@H](C)[C@@H]1O | Staphylococcus epidermidis | 0.125 µg/mL |
| C=C[C@]1(C)C[C@@H](OC(=O)CS[C@@H]2C[C@H]3CC[C@@H](C2)N3C)[C@]2(C)[C@H](C)CC[C@]3(CCC(=O)[C@H]32)[C@@H](C)[C@@H]1O | Staphylococcus epidermidis | 0.125 µg/mL |
| C=C[C@]1(C)C[C@@H](OC(=O)CSC2=NC(C)=C(C(=O)OC(C)CC)C(C)N2)[C@]2(C)[C@H](C)CC[C@]3(CCC(=O)[C@H]32)[C@@H](C)[C@@H]1O (stereo partly specified) | Staphylococcus epidermidis | 1 µg/mL |

We now examine a further molecule.
Consider the molecule shown here: "C=C[C@]1(C)C[C@@H](OC(=O)CSc2nc(C)c(C(=O)OC)c(C)n2)[C@]2(C)[C@H](C)CC[C@]3(CCC(=O)[C@H]32)[C@@H](C)[C@@H]1O" What is its recorded MIC? 0.0313 µg/mL
